Data provenance is ChEMBL document CHEMBL1150530.

Target: Thromboxane-A synthase (Homo sapiens, UniProt P24557)
Sequence (P24557 whole entry): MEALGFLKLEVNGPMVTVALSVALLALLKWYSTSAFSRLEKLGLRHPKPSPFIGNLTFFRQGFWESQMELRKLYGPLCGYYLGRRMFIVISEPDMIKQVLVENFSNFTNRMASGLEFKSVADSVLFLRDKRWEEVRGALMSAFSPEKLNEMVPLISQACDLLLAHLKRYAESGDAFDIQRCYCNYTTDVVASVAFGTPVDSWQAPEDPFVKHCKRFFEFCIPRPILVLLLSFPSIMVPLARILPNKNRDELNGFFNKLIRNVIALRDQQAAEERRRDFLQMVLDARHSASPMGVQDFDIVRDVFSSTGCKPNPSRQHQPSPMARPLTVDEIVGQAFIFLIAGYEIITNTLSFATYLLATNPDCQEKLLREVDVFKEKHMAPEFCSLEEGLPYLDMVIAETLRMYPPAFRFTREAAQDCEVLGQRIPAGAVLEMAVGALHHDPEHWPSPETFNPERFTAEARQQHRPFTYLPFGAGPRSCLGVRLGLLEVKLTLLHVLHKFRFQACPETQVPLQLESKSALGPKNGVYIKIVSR
Test: Inhibitory concentration against thromboxane synthase enzyme
pIC50: −log10 of the molar value.
recorded-metric: pIC50

The cases that follow already have their pIC50 on record.
line-notation: O=C(O)CCCCCc1cnccc1CCCNS(=O)(=O)c1ccc(Cl)cc1
measurement: 7.00

line-notation: O=C(O)CCCCCCc1cnccc1CCNS(=O)(=O)c1ccc(Cl)cc1
measurement: 7.10

line-notation: O=C(O)CCCCCc1cnccc1CCNS(=O)(=O)c1ccc(Cl)cc1
measurement: 7.37

(a) O=C(O)CCCCCCc1cnccc1CCCNS(=O)(=O)c1ccc(Cl)cc1
(b) O=C(O)CCCCCc1cnccc1CNS(=O)(=O)c1ccc(Cl)cc1
QUERY: Looking at a and b , which one comes out lower in pIC50 terms? Pick one; state its label.
RESULT: b

---

Species: Homo sapiens
Assay: Inhibitory concentration against U 46619 induced aggregation of human washed platelets(WP)
Format: functional
recorded-metric: IC50 (nM)

Please review the following examples before continuing.
line-notation: O=C(O)CCCCCc1cnccc1CNS(=O)(=O)c1ccc(Cl)cc1
IC50 [nM]: 220

line-notation: O=C(O)CCCCCc1cnccc1CCNS(=O)(=O)c1ccc(Cl)cc1
IC50 [nM]: 195

(a) O=C(O)CCCCCCc1cnccc1CCNS(=O)(=O)c1ccc(Cl)cc1
(b) O=C(O)CCCCCCc1cnccc1CCCNS(=O)(=O)c1ccc(Cl)cc1
(c) O=C(O)CCCCCc1cnccc1CCCNS(=O)(=O)c1ccc(Cl)cc1
QUERY: Sequence the entries by IC50, beginning with the highest number. Put the labels in the requested order and list them out.
RESULT: b, a, c
